test system: MS2 coat protein; assay: apparent KD of MS2 coat protein; designed switch direction (-1 OFF switch, 1 ON switch): -1; higher = weaker reporter binding; conditions: input ligand: FMN 200 uM
measureName: apparent KD of MS2 coat protein (µM)
Answers are plain numbers, in µM.

Some solved cases for reference:
sequenceText	apparent KD of MS2 coat protein [µM]
ACAUGUUAUGUAGGAUAUUGGACACAUGAGGAUCACCCAUGUACCCGGAGGCUUUACUAUGAGUUCGAGAAGGGUAUGUACAUG [Ex NG2 #69] (Eterna round: R96, puzzle: Exclusion NG 2)	0.0353
UUUACAAGCUUAAGAUCCCACAUGAGGAUCACCCAUGUUGCUGCCGGUGACGGUAGCAUAACUUAUGCUCGUCUUAU [JL TOV1 3.60] (Eterna round: R97, puzzle: Sensor, turn-off variant 1)	0.177
AAUUAAUAUCAGGAUAUGACGUGCGAUAGCACGUCAGAAGGGAUGACAUGAGGAUCACCCAUGUGAUCAAUUAA [E6/1-A4] (Eterna round: R97, puzzle: Exclusion 6)	0.15
ACACACACAGGAUAUCUUCCGCAUGACAUGAGGAUCACCCAUGUGUGCAUGCCCAAAAGUAGAGAAGGGUGUGUGU [eternacac ex5r4 #2] (Eterna round: R97, puzzle: Exclusion 5)	0.0262
AACGCGUGAGGAUAUUGAGGUCUAAAAUGGUAACAUGACCACGAGAAGGCACAUGAGGAUCACCCAUGUUCCCG [Eternabot (L2) Solution 49] (Eterna round: R97, puzzle: Exclusion 4)	0.0851
UAUGUGUCAGGAUAUCGAUUAGAACAGAAUUUAACAAUAGUCGAGAAGGGACAUGAGGAUCACCCAUGUUCAUC [JR_Ex4_Sub022] (Eterna round: R97, puzzle: Exclusion 4)	0.0264
GUGAAUGCAAGCUUUAAAUACAUGAGGAUCACCCAUGUAAACGCUAACCGCGAUAAUUACUGGGUACCUCCCGUCUU [Eternabot (L2) Solution 44] (Eterna round: R97, puzzle: Sensor, turn-off variant 1)	0.0087
GUUUCACAUGAGGAUCACCCAUGUGAGGAUAUAAAUUUGUUAACCGUAGUUAAUAGAUUUAGAAGGCGCGUGAU [JR_Exc1_Sub001] (Eterna round: R97, puzzle: Exclusion 1)	0.0682

Report apparent KD of MS2 coat protein for every entry below.
1. AAGUUGUGAGGAUAUACACAUCGUGCGGAAAGAUCCUUGUCACAUGAGGAUCACCCAUGUAGAAGGCGCGGUAU [Eternabot (L1) Solution 94] (Eterna round: R97, puzzle: Exclusion 2)
2. GGCCUUCCACGAGCUUUUUACAUGAGGAUCACCCAUGUGGUUUUUAGUCUUAUCCCGGGCCCGCUGUCGGGCCCGGG [-32.2, -52.8, A 13%] (Eterna round: R97, puzzle: Sensor, turn-off variant 1)
3. ACAUGAGGAUCACCCAUGUCCGGCUGGUCCGUCUCGGCUGUCGAGGAUAUAGCUCGGUGUCCGCGCUAGAAGGCGGGAGCCGGC [Aenatbe mod 83] (Eterna round: R96, puzzle: Exclusion NG 3)
4. AUGUUGCGAGGAUAUAUUUACUUGUUGUUAUUUGGUUGGGAACAUGAGGAUCACCCAUGUAGAAGGUGCAUAAC [JR_Ex2_Sub035] (Eterna round: R97, puzzle: Exclusion 2)

Outgoing:
[0.529, 0.0291, 0.0915, 0.0589]

Report apparent KD of MS2 coat protein for every entry below.
1. GUGAGGGAGUGAGGAUAUCAGGGAGGUGGGAAAUGAGAAGGUACAUGAGGAUCACCCAUGUAAGAGUAGGGAAGAGAGAAGAGU [Default title] (Eterna round: R96, puzzle: Exclusion NG 1)
2. GUCACAUGGACAUAGGAUCACAUGAGGAUCACCCAUGUGACUAACAAGCUUUUUGUUCGUCUUAUGUCCAUGUGAAG [Stov1/15-B3] (Eterna round: R97, puzzle: Sensor, turn-off variant 1)
3. GUAAACGCAGAGGAUAUAUCAGAUCAAAGCUGCAUAGAAGGCUGCACAUGAGGAUCACCCAUGUGGUCUUCAAG [Mat - Exclusion 6 - JL Mod - D7] (Eterna round: R97, puzzle: Exclusion 6)
4. UUCUUUAUACGAGGAUAUCAUACAUGAGGAUCACCCAUGUAACUGGGUCUAUUUUUAUAUAAUAUUGAGAAGGCGUUUUGCUAU [JR_ExcNG2_Sub071] (Eterna round: R96, puzzle: Exclusion NG 2)
5. CUGAGAUGAGGAUAUACAUGAGGAUCACCCAUGUAAAGUAGCUUGCGUACAGGCAGAUGUAGAAGGCAUUUCGG [Mod of JL 4 - Jieux - Exclusion 3] (Eterna round: R97, puzzle: Exclusion 3)
6. CAUUAUUAUCGAGGAUAUCCUAUUGAAAUUCUGGGAGAAGGCGGACUCAACAUGAGGAUCACCCAUGUAAGACGGGUGCUAGGG [Ex NG1 #25] (Eterna round: R96, puzzle: Exclusion NG 1)

Outgoing:
1. 0.0787
2. 0.0124
3. 0.23
4. 0.0526
5. 0.0447
6. 0.202

* * *

system: MS2 coat protein; assay: apparent KD of MS2 coat protein; designed switch direction (-1 OFF switch, 1 ON switch): -1; higher = weaker reporter binding; settings: input ligand: FMN 200 uM
Would you please tag the item Fulfilled when its apparent KD of MS2 coat protein is 30 nM or above, and Not fulfilled when it is below?

Please review the entries below; each comes with its answer.
sequenceText	assaySystem	class
CCGUUGCUAGGAUAUACAUGAGGAUCACCCAUGUUUGAUCCAGCGAGUCAAUCCGCUUGUAGAAGGAGUUACAC [EX3 C.9] (Eterna round: R97, puzzle: Exclusion 3)	MS2 coat protein	Not fulfilled
UGAGUGCUGCGAGGAUAUACAUGAGGAUCACCCAUGUAAACCUGUGAGGCUUUGCCUCACAGGAUGUAGAAGGCGCAGUACUCU [JL ENG2 1.16] (Eterna round: R96, puzzle: Exclusion NG 2)	MS2 coat protein	Not fulfilled
CUGUGUAGACAGGAUAUGCUGUACAAAAGUACAGCAGAAGGGUCUACAUGAGGAUCACCCAUGUUUACUUCAUG [)mei Ex6 B23] (Eterna round: R97, puzzle: Exclusion 6)	MS2 coat protein	Not fulfilled
UGAAAGUGAGGAUAUCCAAUAUAUGACAUGAGGAUCACCCAUGUUUCCACUCGUACCUCCGGAGAAGGCACAAGGU [Ex5 #57] (Eterna round: R97, puzzle: Exclusion 5)	MS2 coat protein	Not fulfilled

Incoming: Is reported apparent KD of MS2 coat protein greater than or equal to 30 nM here: UAUAUUGGAGGAUAUCUCUCAGUGAACAUGAGGAUCACCCAUGUUGGUGAACGACGGCACAGAGAAGGUCAACGCA [Eternabot (L2) Solution 61] (Eterna round: R97, puzzle: Exclusion 5)
Outgoing: Fulfilled

Incoming: Is reported apparent KD of MS2 coat protein greater than or equal to 30 nM here: GCGCCAUCGUGAGAUGGCGUAAUUACAUGAGGAUCACCCAUGUAGGAUAUCGAUUGCUUUGCAGUCGAGAAGGACAUGAUAAUU [JL ENG3 3.80] (Eterna round: R96, puzzle: Exclusion NG 3)
Outgoing: Fulfilled

Incoming: Is reported apparent KD of MS2 coat protein greater than or equal to 30 nM here: UGCAGACGAGGAUAUAGAUUUAAGUACAUGAGGAUCACCCAUGUACAUAUGUAUUUAGAUUUAGAAGGCGUCUGCU [E5/16-A4] (Eterna round: R97, puzzle: Exclusion 5)
Outgoing: Not fulfilled

Incoming: Is reported apparent KD of MS2 coat protein greater than or equal to 30 nM here: UUUCUGUGAGGAUAUCAGUAGUAAAUAAAUAAAAUUACUACUGAGAAGGCACAUGAGGAUCACCCAUGUUCCUU [salish99_ex3_r3_093] (Eterna round: R96, puzzle: Exclusion 4)
Outgoing: Fulfilled

Incoming: Is reported apparent KD of MS2 coat protein greater than or equal to 30 nM here: CCGGGCCCGGGAGGAUAUACAUGAGGAUCACCCAUGUGGGCCCGGGCCCGCGGGCCCGGGCCCGUGUAGAAGGCCCGGGCCCGG [-64.8, -63.2 kcal, A 14%] (Eterna round: R96, puzzle: Exclusion NG 2)
Outgoing: Not fulfilled

* * *

test system: MS2 coat protein; test: apparent KD of MS2 coat protein; designed switch direction (-1 OFF switch, 1 ON switch): -1; higher = weaker reporter binding; conditions: Eterna round: R95; input ligand: FMN 200 uM
measureName: apparent KD of MS2 coat protein (µM)
One number for each entry, in µM.

Some solved cases for reference:
sequenceText	assaySystem	measureName	reported
CUGGUCCGAGGAUAUAUUUUGUGAUACAUGAGGAUCACCCAUGUAAUAAGAUGGAAGUAAAUAGAAGGCGGACUAG [Mat - Exclusion 5 - JL mod - D47] (puzzle: Exclusion 5)	MS2 coat protein	apparent KD of MS2 coat protein	0.0693
AGUAACUAUCACGAAAGUGAUAGUUACAAUAGCAGUGGAACAUGAGGAUCACCCAUGUCCUCAUUUGCUCGUCUUAU [Sensor 3 - 22] (puzzle: Sensor v3, turn-off variant 2)	MS2 coat protein	apparent KD of MS2 coat protein	0.0362
UAGAUGUGAGGAUAUGGUAAAGAUAAGAUGAUGAAAGAACUCCAGAAGGCACAUGAGGAUCACCCAUGUAGAUG [JL-ex4-2.15 Jieux mod] (puzzle: Exclusion 4)	MS2 coat protein	apparent KD of MS2 coat protein	0.0781

Report apparent KD of MS2 coat protein for every entry below.
1. AGCCCUUGUGUCAGGAUAUGCAUCCUUAAUGGACGGCAGAAGGGACAUGAGGAUCACCCAUGUAAAUAGAAAAU [Sodixeti] (puzzle: Brourd's mod of Exclusion 4)
2. UUAUUGCAAGCAAGAUCCCACAUGAGGAUCACCCAUGUGCUCGUCUUAUAAGGUACUGUGACGAAAGUCACGGUACC [Sensor 3, v1 - 99] (puzzle: Sensor v3, turn-off variant 1)

Outgoing:
0.0301
0.026
